PROTOCOL_NOTES: in vivo
CONDITION_DETAILS: male, Sprague Dawley, rat, in vivo, sc, 1 mg/kg
METRIC: concentration at 0.5 h (ng/mL)
Express the result in ng/mL but write the number alone.

INPUT: Any idea what its concentration at 0.5 h is? The compound is CC(C)COc1ccc(CNC(=O)N(Cc2ccc(F)cc2)C2CCN(C(=O)CC[C@H](N)C(=O)O)CC2)cc1 [Compound 14a]
OUTPUT: 271

====

PROTOCOL_NOTES: Metabolic stability in human liver microsomes
Assay type: in vitro ADME
CONDITION_DETAILS: both sexes, human, microsomes, pH 7.4; HLM, 1 μM, 0.50 mg protein per mL, NADPH
METRIC: microsomal CLint at 1 μM (µL/min/mg)
Express the result in µL/min/mg but write the number alone.

INPUT: Any idea what its microsomal CLint at 1 μM is? The compound is CC(CNC(=N)CNc1ccccc1)Oc1cccc(Cl)c1.O=CO (centres unmarked) [BW501C67, formate]
OUTPUT: 192
